assay: Mean residence time in sc dosed rat; assay type: ADME, organism-based; conditions: in vivo
Consider the following compounds and their measured MRT readings.

> print(dat)
                                 mol.smiles  quantity.kind  measured
1  CCCCC[C@@H](C(=O)NCNC(=O)c1ccc(-c2ccc(C(=O)N[C@@H](CC(=O)O)C(=O)O)c(OCC)c2)o1)[C@@H](CC)N(O)C=O            MRT     > 2 h

Next, consider the following compound.
What does the record list as MRT for CCCCC[C@@H](C(=O)NCNC(=O)c1ccc(-c2cc(OCC)cc(P(=O)(O)O)c2)o1)[C@@H](CC)N(O)C=O ?
> 2 h

====

Consider the following compounds and their measured pIC50 readings.
biological target: Macrophage metalloelastase (Homo sapiens)
Sequence (P39900 whole entry): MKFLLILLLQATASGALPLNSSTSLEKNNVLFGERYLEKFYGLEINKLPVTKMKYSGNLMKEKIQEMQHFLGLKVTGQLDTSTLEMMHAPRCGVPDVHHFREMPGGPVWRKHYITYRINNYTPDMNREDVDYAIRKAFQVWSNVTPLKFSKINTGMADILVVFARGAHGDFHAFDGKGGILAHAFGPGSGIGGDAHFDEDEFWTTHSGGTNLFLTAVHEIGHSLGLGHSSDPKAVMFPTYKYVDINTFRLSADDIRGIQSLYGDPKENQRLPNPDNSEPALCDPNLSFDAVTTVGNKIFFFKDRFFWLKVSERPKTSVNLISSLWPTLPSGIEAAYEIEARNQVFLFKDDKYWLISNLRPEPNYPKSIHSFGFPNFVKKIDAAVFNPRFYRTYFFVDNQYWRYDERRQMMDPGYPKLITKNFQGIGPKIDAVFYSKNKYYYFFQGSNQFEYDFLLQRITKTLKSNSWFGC
Note: pIC50 values are expressed as the negative base-10 logarithm of concentration in M.

> print(dat)
                                 mol.smiles  quantity.kind  measured
1  COc1cccc2cc(C(=O)NCNC(=O)[C@H](Cc3ccccc3)CN(O)C=O)oc12          pIC50      5.40

What does the record list as pIC50 for CCCCC[C@@H](C(=O)NCNC(=O)c1cc2cccc(OC)c2o1)[C@H](CC)N(O)C=O ?
6.70

Also, CCC[C@H](CN(O)C=O)C(=O)NCNC(=O)c1cc2cccc(OC)c2o1 please.
5.90

====

Molecular target: Bone morphogenetic protein 1 (Homo sapiens, UniProt P13497)
Sequence (P13497 whole entry): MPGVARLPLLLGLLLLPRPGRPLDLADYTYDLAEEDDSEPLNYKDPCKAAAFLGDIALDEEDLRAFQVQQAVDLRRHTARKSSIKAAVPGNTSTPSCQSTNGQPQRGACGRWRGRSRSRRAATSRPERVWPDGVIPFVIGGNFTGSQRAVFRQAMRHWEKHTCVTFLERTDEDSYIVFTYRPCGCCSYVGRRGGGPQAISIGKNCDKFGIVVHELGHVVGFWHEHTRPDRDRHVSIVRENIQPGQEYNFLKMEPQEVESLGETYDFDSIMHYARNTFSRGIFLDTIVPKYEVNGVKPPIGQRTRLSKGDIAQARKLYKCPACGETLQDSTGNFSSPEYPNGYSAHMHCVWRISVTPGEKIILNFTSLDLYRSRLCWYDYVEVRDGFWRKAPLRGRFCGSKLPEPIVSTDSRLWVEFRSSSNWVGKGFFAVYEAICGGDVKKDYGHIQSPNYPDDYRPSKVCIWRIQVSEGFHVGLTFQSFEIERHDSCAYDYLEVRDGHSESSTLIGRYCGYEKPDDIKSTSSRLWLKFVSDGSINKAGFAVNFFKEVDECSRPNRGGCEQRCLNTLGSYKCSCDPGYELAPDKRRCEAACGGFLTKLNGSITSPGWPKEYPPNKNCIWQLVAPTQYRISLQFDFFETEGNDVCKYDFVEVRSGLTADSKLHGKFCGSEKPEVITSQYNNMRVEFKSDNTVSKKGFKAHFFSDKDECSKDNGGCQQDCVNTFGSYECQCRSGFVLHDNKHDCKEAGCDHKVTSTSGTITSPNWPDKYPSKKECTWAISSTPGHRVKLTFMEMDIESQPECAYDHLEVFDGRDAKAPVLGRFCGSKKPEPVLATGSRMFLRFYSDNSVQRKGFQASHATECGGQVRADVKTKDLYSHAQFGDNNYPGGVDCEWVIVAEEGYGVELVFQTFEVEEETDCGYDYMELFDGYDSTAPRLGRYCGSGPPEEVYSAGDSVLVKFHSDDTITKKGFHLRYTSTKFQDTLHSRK
quantity-kind: pKi
Note: pKi values are expressed as the negative base-10 logarithm of concentration in M.

What does the record list as pKi for CCCCC[C@@H](C(=O)NCNC(=O)c1ccc(-c2ccc(C(=O)N[C@@H](CC(=O)O)C(=O)O)c(OCC)c2)o1)[C@@H](CC)N(O)C=O ?
11.17

====

target: UniProt P13497; assay: Inhibition of recombinant human N-terminal 6His/flag-tagged BMP1 (121 to 721 residues) expressed in CHO cells using ((5-FAM)-ELIDQYDVQRDDSSDGSLED-K(5,6 TAMRA)-CONH2) as substrate preincubated for 10 mins followed by substrate addition measured after 60 mins
Consider the following compounds and their measured IC50 readings.

> print(dat)
                                 mol.smiles    measured
1  CCCCC[C@@H](C(=O)NCNC(=O)c1cc2cccc(OC)c2o1)[C@H](CC)N(O)C=O  > 10000 nM
2  CCCCC[C@@H](C(=O)NCNC(=O)c1ccc(-c2ccc(P(=O)(O)O)c(OCC)c2)o1)[C@@H](CC)N(O)C=O      < 1 nM

What does the record list as IC50 for CCCCC[C@@H](C(=O)NCNC(=O)c1ccc(-c2cc(OCC)cc(C(=O)N[C@@H](CC(=O)O)C(=O)O)c2)o1)[C@@H](CC)N(O)C=O ?
< 1 nM

Entry source: ChEMBL document CHEMBL4196124
